test system: Rhizobium 1 (Rhizobium herbae); assay: relative growth (AUC of 72 h growth curve relative to DMSO control, dAUC) (ratio); higher = more growth (less inhibition), active = hit call of the paper; conditions: 20 µM

>  <compound>
CN1COCN(Cc2cnc(Cl)s2)/C1=N\[N+](=O)[O-]

>  <relative growth>
1.01

$$$$
>  <compound>
CC(COc1ccc(Oc2ccccc2)cc1)Oc1ccccn1 (centres undefined)

>  <relative growth>
0.97

$$$$
>  <compound>
COc1ncc(F)c2nc(S(=O)(=O)Nc3c(F)cccc3F)nn12

>  <relative growth>
0.982

$$$$
>  <compound>
CCCCc1c(C)nc(NCC)nc1OS(=O)(=O)N(C)C

>  <relative growth>
1.05

$$$$
>  <compound>
CNC(=O)Oc1cccc(/N=C/N(C)C)c1

>  <relative growth>
0.99

$$$$
>  <compound>
Cc1cc(C(C#N)c2ccc(Cl)cc2)c(Cl)cc1NC(=O)c1cc(I)cc(I)c1O (centres undefined)

>  <relative growth>
0.478

$$$$
>  <compound>
COCC(C)N(C(=O)CCl)c1c(C)csc1C (centres undefined)

>  <relative growth>
1.04

$$$$
>  <compound>
COP(=S)(OC)SCN1C(=O)c2ccccc2C1=O

>  <relative growth>
0.943

$$$$
>  <compound>
CC1(C)C(C=C(Cl)Cl)C1C(=O)OC(C#N)c1ccc(F)c(Oc2ccccc2)c1 (centres undefined)

>  <relative growth>
1.06

$$$$
>  <compound>
CCNC(=O)NC(=O)/C(C#N)=N/OC

>  <relative growth>
1.06

$$$$
>  <compound>
O=[N+]([O-])c1cc(C(F)(F)F)c(Cl)c([N+](=O)[O-])c1Nc1ncc(C(F)(F)F)cc1Cl

>  <relative growth>
0.109

$$$$
>  <compound>
N#Cc1cc(Br)c(O)c(Br)c1

>  <relative growth>
0.751

$$$$
>  <compound>
N#C/N=C1\SCCN1Cc1ccc(Cl)nc1

>  <relative growth>
1.02

$$$$
>  <compound>
CNC(=O)CSP(=S)(OC)OC

>  <relative growth>
1.05

$$$$
>  <compound>
COP(N)(=O)SC (centres undefined)

>  <relative growth>
0.973

$$$$
>  <compound>
CC1COC(Cn2cncn2)(c2ccc(Oc3ccc(Cl)cc3)cc2Cl)O1 (centres undefined)

>  <relative growth>
0.952

$$$$
>  <compound>
Cc1nnc(-c2ccccc2)c(=O)n1N

>  <relative growth>
1.07

$$$$
>  <compound>
CCCC1COC(Cn2cncn2)(c2ccc(Cl)cc2Cl)O1 (centres undefined)

>  <relative growth>
0.931

$$$$
>  <compound>
O=C(O)c1nc(Cl)ccc1Cl

>  <relative growth>
1.05

$$$$
